Tested on: Escherichia coli TOP10
Assay: shrunken log2 fold change of peptide-encoding DNA abundance (4.5 h post-induction vs induction); higher = less antimicrobial activity (less host growth inhibition)
Settings: time post-induction: 4.5 h; library: site-saturation at positions 5, 18, 19, 20
measurement.name: shrunken log2 fold change
Enter a number only.

RRIRPRPPRLPRPRPRPPTIPRP
-0.148
RRIRQRPPRLPRPRPRPKRTPRP
0.00512
RRIRKRPPRLPRPRPRPVTHPRP
0.0561
RRIRRRPPRLPRPRPRPSRVPRP
0.553
RRIRNRPPRLPRPRPRPDKQPRP
0.00349

Could you now consider this next sequence?
Prompt line: // shrunken log2 fold change lookup, key: "RRIRKRPPRLPRPRPRPLEWPRP"
Response line: -0.0047

* * *

shrunken log2 fold change values for the sequences below.
System: Escherichia coli TOP10
Assay: shrunken log2 fold change of peptide-encoding DNA abundance (4.5 h post-induction vs induction); higher = less antimicrobial activity (less host growth inhibition)
Conditions: time post-induction: 4.5 h; library: site-saturation at positions 5, 18, 19, 20
# respond with the number and nothing more

Answered cases to consult:
RRIRLRPPRLPRPRPRPHMGPRP
-0.386
RRIRVRPPRLPRPRPRPANQPRP
-0.186
RRIRCRPPRLPRPRPRPPNFPRP
-0.0525
RRIRRRPPRLPRPRPRPQVFPRP
0.408
RRIRHRPPRLPRPRPRPVMAPRP
-0.27

Prompt line: Given the sequence "RRIRIRPPRLPRPRPRPKNPPRP" , what is its reported shrunken log2 fold change?
Response line: -0.439

Prompt line: Param item = "RRIRDRPPRLPRPRPRPGIHPRP" ; retrieve measured shrunken log2 fold change.
Response line: -0.89

Prompt line: Look up shrunken log2 fold change: "RRIRSRPPRLPRPRPRPKYYPRP"
Response line: -0.918

* * *

Tested on: Escherichia coli TOP10;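 note: peptides expressed intracellularly from a pBAD plasmid library in pooled LB shake-flask culture, induced with 0.3% L-arabinose, DNA abundance read by NGS, three biological replicates, DESeq2 with apeglm shrinkage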
Experiment: shrunken log2 fold change of peptide-encoding DNA abundance (4.5 h post-induction vs induction); higher = less antimicrobial activity (less host growth inhibition)
Details: time post-induction: 4.5 h; library: site-saturation at positions 5, 18, 19, 20
Classify as follows. Reported shrunken log2 fold change greater than or equal to -0.3: y. Reported shrunken log2 fold change below: n.

Known results for sequences:
RRIRWRPPRLPRPRPRPERFPRP
y
RRIRLRPPRLPRPRPRPKCEPRP
y
RRIRFRPPRLPRPRPRPSNGPRP
y

Prompt line: Does "RRIRDRPPRLPRPRPRPIVKPRP" have a reported shrunken log2 fold change of at least -0.3?
Response line: y

Prompt line: Reported shrunken log2 fold change at or above -0.3? "RRIRMRPPRLPRPRPRPAHKPRP"
Response line: y

Prompt line: Decide: is the reported value of shrunken log2 fold change for "RRIRRRPPRLPRPRPRPYNSPRP" equal to or greater than -0.3?
Response line: n

Prompt line: Check this sequence for shrunken log2 fold change at or above -0.3: "RRIRTRPPRLPRPRPRPDSDPRP"
Response line: n

Prompt line: Given the entry "RRIRPRPPRLPRPRPRPGMSPRP" , answer whether its shrunken log2 fold change meets or surpasses -0.3.
Response line: y

Prompt line: Hi, just wondering whether "RRIRRRPPRLPRPRPRPQTWPRP" shows shrunken log2 fold change of -0.3 or higher.
Response line: y

Prompt line: Could you please find out whether "RRIRYRPPRLPRPRPRPYLQPRP" has shrunken log2 fold change that meets -0.3 or exceeds it?
Response line: n
